Origin of the recorded values: patent US8410097B2

- Tested On: CB1 cannabinoid receptor (Rattus norvegicus)
- Construct: membranes were prepared from rat forebrain membranes; from tissue; host or cells: rat forebrain membranes
- Sequence (P20272 whole entry): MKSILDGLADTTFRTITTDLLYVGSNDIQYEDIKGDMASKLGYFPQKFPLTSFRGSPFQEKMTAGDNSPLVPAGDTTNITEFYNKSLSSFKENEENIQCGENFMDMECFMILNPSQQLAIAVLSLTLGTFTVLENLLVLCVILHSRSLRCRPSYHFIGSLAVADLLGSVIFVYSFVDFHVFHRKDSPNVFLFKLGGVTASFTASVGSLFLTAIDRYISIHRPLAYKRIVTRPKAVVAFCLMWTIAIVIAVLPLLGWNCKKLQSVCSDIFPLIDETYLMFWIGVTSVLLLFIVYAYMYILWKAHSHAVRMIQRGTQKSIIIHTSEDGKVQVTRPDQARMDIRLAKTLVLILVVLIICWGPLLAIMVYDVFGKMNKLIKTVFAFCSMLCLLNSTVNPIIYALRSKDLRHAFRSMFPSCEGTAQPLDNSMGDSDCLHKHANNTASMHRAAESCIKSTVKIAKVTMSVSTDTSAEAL
- Protocol Text: biochemical
- Assay type: binding
- Run Conditions: CB1 Ki, Table 6; rat forebrain membranes, 0.8 nM [3H] CP-55,940
pKi: −log10 of the molar value.
// NO strictly below 8 in pKi; YES otherwise

{"Compound String": "O=C(NC1CCCCC1)c1nc(-c2ccc(Cl)cc2Cl)n(-c2ccc(I)cc2)c1CO", "Answer Label": "NO"}
{"Compound String": "Cc1c(C(=O)NN2CCCCC2)nc(-c2ccc(Cl)cc2Cl)n1-c1ccc(I)cc1", "Answer Label": "YES"}
{"Compound String": "N#Cc1ccc(-n2c(-c3ccc(Cl)cc3Cl)nc(C(=O)NN3CCCCC3)c2CO)cc1", "Answer Label": "NO"}
{"Compound String": "O=C(NN1CCCCC1)c1nc(-c2ccc(Cl)cc2Cl)n(-c2ccc(I)cc2)c1CO", "Answer Label": "YES"}
{"Compound String": "O=C(NN1CCCCC1)c1nc(-c2ccc(Cl)cc2Cl)n(-c2ccc(-c3cccnc3)cc2)c1CO", "Answer Label": "NO"}
{"Compound String": "O=C(NN1CCCCC1)c1nc(-c2ccc(Cl)cc2Cl)n(-c2ccc(-c3nccs3)cc2)c1CO", "Answer Label": "NO"}

Reported pKi at or above 8? "Cc1c(C(=O)N(C)C2CCCCC2)nc(-c2ccc(Cl)cc2Cl)n1-c1ccc(-c2nnnn2C)cc1"
NO

Reported pKi at or above 8? "Cc1c(C(=O)NN2CCCCC2)nc(-c2ccc(Cl)cc2Cl)n1-c1ccc(C#N)cc1"
NO

Reported pKi at or above 8? "Cc1c(C(=O)N2CCCCC2)nc(-c2ccc(Cl)cc2Cl)n1-c1ccc(Br)cc1"
NO

---

- Tested On: CB1 cannabinoid receptor (Rattus norvegicus)
- Construct: membranes were prepared from rat forebrain membranes; from tissue; host or cells: rat forebrain membranes
- Protocol Text: biochemical
- Type: binding
- Run Conditions: CB1 Ki, Table 6; rat forebrain membranes, 0.8 nM [3H] CP-55,940
Observable: pKi
Lab note: report pKi as minus log10 of the concentration in molar units, number only.

Observe how each entry below is paired with its result.
{"Compound String": "Cc1cc(Br)ccc1-n1c(-c2ccc(Cl)cc2Cl)nc(C(=O)NN2CCCCC2)c1CO", "Reported Result": 7.26}
{"Compound String": "CN(C(=O)c1nc(-c2ccc(Cl)cc2Cl)n(-c2ccc(-c3nnn(C)n3)cc2)c1CO)C1CCCCC1", "Reported Result": 7.72}

Entry "Cn1nnc(-c2ccc(-n3c(-c4ccc(Cl)cc4Cl)nc(C(=O)NN4CCCCC4)c3CO)cc2)n1" , tested on CB1 cannabinoid receptor (Rattus norvegicus), has a reported pKi of 7.98

Entry "Cc1c(C(=O)NN2CCCCC2)nc(-c2ccc(Cl)cc2Cl)n1-c1ccc(-c2cccnc2)cc1" , tested on CB1 cannabinoid receptor (Rattus norvegicus), has a reported pKi of 7.40

Entry "Cc1c(NC(=O)N(C)C2CCCCC2)nc(-c2ccc(Cl)cc2Cl)n1-c1ccc(Br)cc1" , tested on CB1 cannabinoid receptor (Rattus norvegicus), has a reported pKi of 7.85

Entry "Cc1c(C(=O)NN2CCCCC2)nc(-c2ccc(Cl)cc2Cl)n1-c1ccc(C#CCCC#N)cc1" , tested on CB1 cannabinoid receptor (Rattus norvegicus), has a reported pKi of 8.80

Entry "Cc1c(C(=O)NN2CCCCC2)nc(-c2ccc(Cl)cc2Cl)n1-c1ccc(-c2nccs2)cc1" , tested on CB1 cannabinoid receptor (Rattus norvegicus), has a reported pKi of 8.11
